test target: human SETD7 (Homo sapiens, UniProt Q8WTS6)
Sequence (Q8WTS6 1-366): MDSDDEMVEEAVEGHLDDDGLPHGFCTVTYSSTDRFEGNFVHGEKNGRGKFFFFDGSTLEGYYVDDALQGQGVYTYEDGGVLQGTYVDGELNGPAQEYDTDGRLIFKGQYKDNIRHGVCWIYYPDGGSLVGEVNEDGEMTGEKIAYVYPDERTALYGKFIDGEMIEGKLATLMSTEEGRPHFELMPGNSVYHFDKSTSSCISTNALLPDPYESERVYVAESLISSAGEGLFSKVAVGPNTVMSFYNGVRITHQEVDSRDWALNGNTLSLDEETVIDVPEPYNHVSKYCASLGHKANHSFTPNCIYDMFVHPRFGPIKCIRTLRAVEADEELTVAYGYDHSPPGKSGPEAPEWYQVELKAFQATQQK
test details: Steady-state kinetics of SETD7-catalysed methylation
Assay type: biochemical
test parameters: peptide 1–150 µM, SAM 30 µM, SETD7 50–300 nM, 37 °C, 10 or 20 min, MALDI-TOF MS, mean ± SD, n = 3; SD
Non-standard residues stand in square brackets, D forms with d. No end group written: not given here. βAla = NCCC(=O)O
measurement label: K m (µM)

Sample answers from the record:
- substance: "D-ARTKQEARKSTGG (sidechain bridge or staple) [Peptide 6]"
  K m / µM: 10.4
- substance: "[βAla]RTKQEARKSTGG (also: sidechain bridge or staple (positions not given here)) [Peptide 11]"
  K m / µM: 17.7
- substance: "AzaRTKQPraARKSTGG (sidechain bridge or staple) [Peptide 3]"
  K m / µM: 36.2
- substance: "FRTKQEARKSTGG (also: sidechain bridge or staple (positions not given here)) [Peptide 9]"
  K m / µM: 34.6
- substance: "ARTKQDARKSTGG (also: sidechain bridge or staple (positions not given here)) [Peptide 5]"
  K m / µM: 12.5

P = GRTKQEARKSTGG (also: sidechain bridge or staple (positions not given here)) [Peptide 7]
Q = VRTKQEARKSTGG (also: sidechain bridge or staple (positions not given here)) [Peptide 8]
**Q:** // select label with min value of measured K m from [ P , Q ] Respond using the label that marks the chosen record.
**A:** P
